Cited source: PubChem BioAssay (NCATS)

Tested on: Nanoluciferase (engineered Oplophorus gracilirostris luciferase)
Experiment: Primary Nanoluciferase (NLuc) qHTS assay for identification of artifact compounds. (AID 1845222);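 also: NLuc secreted into diluted conditioned medium of S16 cells; 0% = DMSO and -100% = no enzyme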
Conditions: NLuc-conditioned medium, Nano-Glo luminescence, 5 min; series mostly up to 54.1 µM
From the text: PI: Alexander Tropsha Ph.D. UNC Eshelman School of Pharmacy University of North Carolina, Chapel Hill, North Carolina Hits from high-throughput screening (HTS) of chemical libraries are often false positives due to their interference with the assay detection technology. […] Using these curated datasets, we developed and validated several Quantitative Structure-Interference Relationship (QSIR) models to predict nuisance behavior. […] 6; Detection; Luminescence, ViewLux microplate reader. […]
Calls of active or inactive are those of the source. Calls follow the shape of the dose curve; as a rule, active = well fitted inhibition curve with a large enough effect; inconclusive = small, poorly fitted or top-dose-only effect; inactive = flat fitted curve, though single readings scatter.
metric-name: activity, negative = inhibition

Name the recorded activity, negative = inhibition for C[C@@H]1O[C@@H](O[C@H]2[C@H](O[C@H]3CC[C@@]4(C)C(CC[C@]5(C)C4CC=C4[C@@H]6CC(C)(C)CC[C@]6(C(=O)O)CC[C@]45C)[C@]3(C)CO)OC[C@H](O)[C@@H]2O)[C@H](O)[C@H](O[C@@H]2OC[C@@H](O)[C@H](O)[C@H]2O)[C@H]1O (some centres not stated) .
0.957% [at 11.6 µM] (inactive)
